- System: XF 498 CNS
- testMethodNotes: NCI tumour cell line growth inhibition, 48 h
Please respond with reported TGI for every item in the list.

1) O=C(O)COc1ccc2c3c1C(=O)CCC3CO2 (stereo not drawn) = > 100 µM
2) CC[C@@]1(O)C(=O)OCc2c1cc1n(c2=O)Cc2cc3c(OC)cccc3nc2-1 = 0.876 µM
3) CCNc1nc2c(=O)n(C)c(=O)n(C)c2s1 = > 100 µM
4) COc1ccc(/C=C2\C(=O)Nc3ccccc32)cc1OC = > 100 µM
5) CCOC(=O)c1sc(Nc2cc(Cl)ccc2Cl)nc1C = > 100 µM

Each compound below has a recorded value; state its TGI.
1. COc1ccc(-c2cc(=O)c3cc4c(cc3[nH]2)OCO4)c(OC)c1
2. CC1OC(n2ccc3ccc([N+](=O)[O-])cc32)C(O)C(O)C1O (stereo not drawn)
3. Cc1ccc(S(=O)OC2c3ccccc3Cc3ccccc32)cc1 (stereo not drawn)
4. O=[N+]([O-])c1cccc(C=NC23CC4CC(CC(C4)C2)C3)c1
5. CCCCN(CCCC)C(=O)C(=O)C(C(=O)C(=O)OC)c1nc2ccccc2o1 (stereo not drawn)
6. c1ccc2c(CNCCCN3CCN(CCCNCc4cccc5ccccc45)CC3)cccc2c1
7. Cc1cc2c(=O)cc(-c3ccc(Cl)cc3Cl)oc2c(C(=O)O)c1C
8. CN1C(=O)CNS1(=O)=O

Data returned:
97.9 µM
> 100 µM
30.3 µM
> 100 µM
> 100 µM
3.17 µM
> 100 µM
> 100 µM
